Where do the numbers come from? From patent US20180213779A1.

# Lookup of reported melting point keyed by entry

>  <MOLECULE>
CCS(=O)(=O)c1cc(C(F)(F)F)cnc1-c1cn(-c2ccc(C(F)(F)F)cc2)nn1 [Compound P2]

>  <RESULT>
212 to 213 °C

$$$$
>  <MOLECULE>
CCS(=O)(=O)c1ccc(Cl)nc1-c1cc(-c2cncc(C(F)(F)F)c2)n(C)n1

>  <RESULT>
152 to 153 °C

$$$$
>  <MOLECULE>
CCS(=O)(=O)c1cccnc1-c1cc(-c2ccc(C(F)(F)F)nc2)n(C)n1

>  <RESULT>
160 to 162 °C

$$$$
>  <MOLECULE>
CCSc1cc(C(F)(F)F)cnc1-c1cc(-c2ccc(C(F)(F)F)cc2)on1

>  <RESULT>
145 to 146 °C

$$$$
>  <MOLECULE>
CCSc1ccc(Cl)nc1-c1cc(-c2cncc(C(F)(F)F)c2)n(C)n1

>  <RESULT>
125 to 126 °C

$$$$
>  <MOLECULE>
CCS(=O)(=O)c1ccc(Cl)nc1-c1cc(-c2ccc(C(F)(F)F)nc2)n(C)n1

>  <RESULT>
198 to 200 °C

$$$$
>  <MOLECULE>
CCS(=O)(=O)c1ccc(-n2cncn2)nc1-c1cc(-c2cncc(C(F)(F)F)c2)n(C)n1

>  <RESULT>
235 to 237 °C

$$$$
>  <MOLECULE>
CCS(=O)(=O)c1cccnc1-c1cc(-c2cc(C(F)(F)F)ccn2)n(C)n1

>  <RESULT>
171 to 173 °C

$$$$
>  <MOLECULE>
CCSc1ccc(Cl)nc1-c1cc(-c2ccc(C(F)(F)F)nc2)n(C)n1

>  <RESULT>
136 to 138 °C

$$$$
>  <MOLECULE>
CCS(=O)(=O)c1ccc(Cl)nc1-c1cc(-c2cc(C(F)(F)F)ccn2)n(C)n1

>  <RESULT>
255 to 257 °C

$$$$

**Q:** melting point lookup needed for CCSc1ccc(Cl)nc1-c1cc(-c2cc(C(F)(F)F)ccn2)n(C)n1 , thanks.
**A:** 138 to 140 °C

**Q:** Here is the next molecule: CCS(=O)(=O)c1ccc(-n2cncn2)nc1-c1cc(-c2ccc(C(F)(F)F)nc2)n(C)n1
**A:** 175 to 177 °C

**Q:** One more molecule: CCS(=O)(=O)c1ccc(-n2cncn2)nc1-c1cc(-c2cc(C(F)(F)F)ccn2)n(C)n1
**A:** 238 to 240 °C
